- Test system: RALDH2 activity in chick choroid cytosol fractions (Gallus gallus)
- Sequence (O93344 1-518): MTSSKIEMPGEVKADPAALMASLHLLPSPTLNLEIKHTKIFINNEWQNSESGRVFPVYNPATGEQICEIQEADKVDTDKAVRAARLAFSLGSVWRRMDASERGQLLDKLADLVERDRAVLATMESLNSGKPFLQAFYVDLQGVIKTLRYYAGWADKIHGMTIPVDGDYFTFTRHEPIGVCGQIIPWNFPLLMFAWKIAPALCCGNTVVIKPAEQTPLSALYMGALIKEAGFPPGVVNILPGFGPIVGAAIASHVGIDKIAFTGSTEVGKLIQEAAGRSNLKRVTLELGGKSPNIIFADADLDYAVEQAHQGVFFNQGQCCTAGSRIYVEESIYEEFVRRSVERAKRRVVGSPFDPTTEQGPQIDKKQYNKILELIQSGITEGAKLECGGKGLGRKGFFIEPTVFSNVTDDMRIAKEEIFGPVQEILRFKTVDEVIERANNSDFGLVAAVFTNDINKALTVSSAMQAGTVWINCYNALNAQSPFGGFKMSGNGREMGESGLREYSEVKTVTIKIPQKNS
Measured attribute: IC50 (nM)
Lab book: enter the figure in nM, no units written.

// IC50 value for CC1=C(/C=C/C(C)=C/C=C/C(C)=C/C(=O)C(Cl)Cl)C(C)(C)CCC1 [DAR] : 20.7
